Provenance of the data: patent US20250027068

- measured target: pooled human IgG (human IgG1,2,3 and 4)
Measured Enzyme Activity Endpoint Assay: scIgG values are reported for all entries that follow.
Give a bare numeral; the unit ng/µL is implied.

{"columns": ["protein", "endpoint value"],
 "data": [
  ["PRT-175 (protein) MANQEIRYSEVTPYHITSVWTKGVTPPTDFTQGEDVFHAPYKANQGWYDITKTFNGKDDLLCGAATAGNMLHWWFDQNKTQIERYLKKHPEKQKINFNGEQMFDVKEAIDTKNSQTNSELFNYFKEKAFPYLSTKHLGVFPDHVIDMFINGYRLSLTNHGPTPVKRQSKDPRGGIFDAVFTRGDQSKLLTSRHDFKEKTLNEISQLIKQELTEGKALGLSHTYANVRINHVINLWGADFDAEGNLEAIYVTDSDSNASIGMKKYFVGVNSAGKVAISAKEIKEDNIGAQVLGLFTLSTGKDSWEKTN", 0]
]}

Below: the item to evaluate.
Qu. Consider the protein PRT-372 (protein) MSQTEDSESLQRLRDIEDFQAEKKKQNVVYTKWLDGVDVKDHDFRKIVDGNSAYYATPLLNGRGFYDINKDFNRDNDKCAAAVAANMFHYWLDRNRDNVDRFLRQNPEKHGIIELPDGQLKLSDFLNTYESDDGYRDKSKLFDFISENFNGPVWTDKLLDNYINGYAYNSKYGRTIEDSTKNTSKINFFKEVFNEKILTNNHSIRNQNEFSVLLIEALYTGKAIGLSYGPAGLRHGLGHIISVWGADLDADGNVVAIYVTDSDDKKLTIGDERVGLKRYKISTDDEGRLRLTAYEETHNTGGQIRGLWTLDTGKQAWADYFDKTEQTGTDQAEQ and give its measured Enzyme Activity Endpoint Assay: scIgG.
Ans. 560
